experiment: AUC (0 to infinity) in rat at 2 mg/kg, iv; type: ADME, organism-based; set-up: time infinity, dose 2 mg/kg, route intravenous; details: plasma
attributeMeasured: AUC(0-inf) (ng·h/mL)
Answer format: numeric, ng·h/mL implied, no suffix.

Record CC(C)COc1ccc(-c2cc(=O)[nH]c(N)n2)cc1C#N , field AUC(0-inf): 480

* * *

assay: Half life in rat at 10 mg/kg, po; type: ADME, organism-based; set-up: dose 10 mg/kg, route oral; conditions: in vivo
attributeMeasured: half-life (h)
Answer format: numeric, h implied, no suffix.

Record CC(C)COc1ccc(-c2cc(=O)[nH]c(N)n2)cc1C#N , field half-life: 11.4

Where do these numbers come from? They come from ChEMBL document CHEMBL2203211.
